ASSAY: CCTE_Shafer_MEA_dev_network_spike_number: CCTE's Neural Network Formation Assay for Number of Network Spikes, Shafer Lab (AID 2284048);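 note: synchronized bursts across electrodes counted on days 5 7 9 12 and integrated as AUC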
Calls of active or inactive are those of the source. Rule for the calls: active = hit-call score of the fitted dose curve at least 0.9, where 1 is the maximum; inactive = score below 0.9.
Outcomes: active, inactive

# COMPOUND, CLASS
data = [
    ("COP(=S)(OC)Oc1ccc([N+](=O)[O-])cc1", "inactive"),
    ("CNC(=O)CSP(=S)(OC)OC", "inactive"),
    ("O=S1OCC2C(CO1)C1(Cl)C(Cl)=C(Cl)C2(Cl)C1(Cl)Cl (stereo unspecified)", "active"),
    ("CC(C)N(C(=O)COc1nnc(C(F)(F)F)s1)c1ccc(F)cc1", "inactive"),
    ("O=[N+]([O-])/N=C1\\NCCN1Cc1ccc(Cl)nc1", "inactive"),
    ("O=C(O)C(F)(F)C(F)(F)C(F)(F)C(F)(F)C(F)(F)C(F)(F)C(F)(F)F", "inactive"),
]
